Measured values drawn from ChEMBL document CHEMBL1122575 for this set.

Tested on: Escherichia coli
Experiment: Compound was evaluated for the relative Vmax against Escherichia coli with strain 609 (beta-Lactamase-positive (LAC+))
Format: ADME, organism-based
REPORTED PROPERTY: RVmax

P. NCCSC1=C(C(=O)O)N2C(=O)CC2S1 (stereo not given)
Q. NCCSC1=C(C(=O)O)N2C(=O)[C@@H](CO)C2S1 (stereo not given in full)
# query: argmin of RVmax over P and Q Respond using the label that marks the chosen record. Q

---

Test system: Escherichia coli
Assay: Compound was evaluated for the antibacterial activity against Escherichia coli with strain JC-S (beta-Lactamase-negative (LAC-))
Format: functional
REPORTED PROPERTY: MIC (µg/mL)

CO[C@@]1(NC(=O)C(C(=O)O)c2ccc(O)cc2)C(=O)N2C(C(=O)O)=C(CSc3nnnn3C)COC21 (some centres undefined)
0.2

A. CO[C@@]1(NC(=O)Cc2ccc(O)cc2)C(=O)N2C(C(=O)O)=C(CSc3nnnn3C)COC21 (some centres undefined)
B. Cn1nnnc1SCC1=C(C(=O)O)N2C(=O)[C@@H](NC(=O)Cc3ccc(O)cc3)C2OC1 (some centres undefined)
C. Cn1nnnc1SCC1=C(C(=O)O)N2C(=O)[C@@H](NC(=O)C(C(=O)O)c3ccc(O)cc3)C2OC1 (some centres undefined)
Ascending by MIC, please: list the compounds accordingly. In plain terms: list the labels in the order you were asked to. A, C, B
(A: 0.1 µg/mL, C: 0.2 µg/mL, B: 0.8 µg/mL)

---

Test: Relative hydrolysis rate (RHR) was evaluated against RTEM enzyme
Assay type: ADME
REPORTED PROPERTY: RHR

CO/N=C(\C(=O)N[C@@H]1C(=O)N2C(C(=O)O)=C(COC(C)=O)C[S@@+]([O-])C12)c1csc(N)n1 (stereo partly drawn)
160

A. CO/N=C(\C(=O)N[C@H]1CN(S(=O)(=O)[O-])C1=O)c1csc(N)n1.[K+]
B. CC(=O)OCC1=C(C(=O)O)N2C(=O)[C@@H](NC(=O)/C(=N\OCC(=O)O)c3csc(N)n3)C2SC1 (stereo partly drawn)
C. CO/N=C(\C(=O)N[C@@H]1C(=O)N2C(C(=O)O)=C(COC(C)=O)CSC12)c1csc(N)n1 (stereo partly drawn)
Ascending by RHR, please: list the compounds accordingly. In plain terms: list the labels in the order you were asked to. A, C, B
(A: 12, C: 100, B: 2111)

I. CC(C)(O/N=C(\C(=O)N[C@H]1CN(S(=O)(=O)[O-])C1=O)c1csc(N)n1)C(=O)[O-].[K+].[K+]
II. CO/N=C(\C(=O)N[C@@H]1C(=O)N2C(C(=O)O)=C(COC(C)=O)CS[C@H]12)c1csc(N)n1
Please state the entry with greater RHR among I and II . Respond using the label that marks the chosen record. II
(II: 100, I: 2.3)

---

System: Escherichia coli
Test: Compound was evaluated for the antibacterial activity against Escherichia coli with strain 609 (beta-Lactamase-positive (LAC+))
Assay type: functional
REPORTED PROPERTY: MIC (µg/mL)

NCCSC1=C(C(=O)O)N2C(=O)CC2S1 (stereo not given)
50

a. CC(O)[C@@H]1C(=O)N2C(C(=O)O)=C(SCCN)SC12 (stereo not given in full)
b. NCCSC1=C(C(=O)O)N2C(=O)[C@H](CO)C2S1 (stereo not given in full)
c. CC(O)[C@H]1C(=O)N2C(C(=O)O)=C(SCCN)SC12 (stereo not given in full)
Ascending by MIC, please: list the compounds accordingly. In plain terms: list the labels in the order you were asked to. c, b, a

---

Assay: Relative hydrolysis rate (RHR) was evaluated against K1 enzyme
Type: ADME
REPORTED PROPERTY: RHR

O=C(Cc1cccs1)N[C@@H]1C(=O)N2C(C(=O)[O-])=C(C[n+]3ccccc3)CS[C@H]12
100
CC(=O)OCC1=C(C(=O)O)N2C(=O)[C@@H](NC(=O)/C(=N/OCC(=O)O)c3csc(N)n3)C2SC1 (some centres not stated)
3
CO/N=C(\C(=O)N[C@@H]1C(=O)N2C(C(=O)O)=C(COC(C)=O)CS[C@H]12)c1csc(N)n1
100
CC(=O)OCC1=C(C(=O)O)N2C(=O)[C@@H](NC(=O)/C(=N\OCC(=O)O)c3csc(N)n3)C2SC1 (some centres not stated)
101
CO/N=C(/C(=O)N[C@@H]1C(=O)N(S(=O)(=O)[O-])[C@@H]1C)c1csc(N)n1.[K+]
6.4

1. CO/N=C(/C(=O)N[C@H]1CN(S(=O)(=O)[O-])C1=O)c1csc(N)n1.[K+]
2. CO/N=C(/C(=O)N[C@@H]1C(=O)N(S(=O)(=O)[O-])[C@H]1C)c1csc(N)n1.[K+]
Please state the entry with greater RHR among 1 and 2 . Respond using the label that marks the chosen record. 1
(1: 106, 2: 20)

---

Test system: Enterobacter cloacae
Assay: Compound was evaluated for the antibacterial activity against Enterobacter cloacae with strain 233 (beta-Lactamase-positive (LAC+))
Format: functional
REPORTED PROPERTY: MIC (µg/mL)

P. Cn1nnnc1SCC1=C(C(=O)O)N2C(=O)[C@@H](NC(=O)C(C(=O)O)c3ccc(O)cc3)C2OC1 (some centres undefined)
Q. CO[C@@]1(NC(=O)C(C(=O)O)c2ccc(O)cc2)C(=O)N2C(C(=O)O)=C(CSc3nnnn3C)COC21 (some centres undefined)
R. CO[C@@]1(NC(=O)Cc2ccc(O)cc2)C(=O)N2C(C(=O)O)=C(CSc3nnnn3C)COC21 (some centres undefined)
Arrange the 3 compounds from largest to smallest MIC. In plain terms: list the labels in the order you were asked to. R, P, Q

---

Let's look at some compounds and their measured RVmax.
System: Escherichia coli
Assay: Compound was evaluated for the relative Vmax against Escherichia coli with strain 609 (beta-Lactamase-positive (LAC+))
Format: ADME, organism-based

These solved cases illustrate the format of a correct answer.
NCCSC1=C(C(=O)O)N2C(=O)[C@H](CO)C2S1 (stereo partly drawn)
< 0.1
CC(O)[C@@H]1C(=O)N2C(C(=O)O)=C(SCCN)SC12 (stereo partly drawn)
< 0.1

Specify measured RVmax for CC(O)[C@H]1C(=O)N2C(C(=O)O)=C(SCCN)SC12 (stereo partly drawn) . < 0.1
